System: MCF10A
assay-procedure: percent viability (nuclei count relative to siNT); higher = more viable cells
test-context: 20 nM; 72 h
I'd be grateful if you could share measured percent viability for these entries.
Answers are plain numbers, in %.

# annotated cases, reported percent viability shown
AAAAGGCGGGAGAAGCCCCA [hsa-miR-4484] | 12
CCCCGGGGAGCCCGGCG [hsa-miR-4532] | 148
AGUUUGGGAUGGAGAGAGGAGA [hsa-miR-6740-5p] | 83.1

Hey, quick one: what's percent viability for each of these?
1. CUCGGGAGGGCAUGGGCCAGGC [hsa-miR-6771-5p]
2. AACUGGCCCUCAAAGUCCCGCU [hsa-miR-193b-3p]
3. UACCCAGUCUCCGGUGCAGCC [hsa-miR-3130-5p]
4. AGGUUGCCUGUGAGGUGUUCA [hsa-miR-656-5p]
5. UGAUGAUACAGGUGGAGGUAG [hsa-miR-3682-3p]

50.5
16.9
27.4
17.5
31.5

Hey, quick one: what's percent viability for each of these?
1. CUGGGAGGUGGAUGUUUACUUC [hsa-miR-30b-3p]
2. GAGUGGAUAGGGGAGUGUGUGGA [hsa-miR-6849-5p]

[12.9, 126]

Hey, quick one: what's percent viability for each of these?
1. CCUGCGAGUCUCCGGCGGUGG [hsa-miR-6068]
2. UCGCCUCCUCCUCUCCC [hsa-miR-1281]
3. CUCAAACCGGCUGUGCCUGUGG [hsa-miR-6715b-3p]
4. UCCUGCCACCUCCUCCGCAG [hsa-miR-6727-3p]

1: 97.4; 2: 60.9; 3: 62.7; 4: 32.5

Hey, quick one: what's percent viability for each of these?
1. AAGAGAGGAGCAGUGGUGCUGUGG [hsa-miR-6856-5p]
2. ACGGAGACGACAAGACUGUGCUG [hsa-miR-5091]
3. UGCCUCCUUGGUCUCCGGCAG [hsa-miR-6791-3p]

1. 52.1
2. 32.1
3. 22.2

###

Tested on: MCF10A
assay-procedure: 5+ nucleoli phenotype percent effect (relative to siNT 0% and siKIF11 100%); higher = more cells with five or more nucleoli
test-context: 20 nM; 72 h
readout-type: 5+ nucleoli phenotype percent effect (%)
Answers are plain numbers, in %.

# annotated cases, reported 5+ nucleoli phenotype percent effect shown
UCAGCACCAGGAUAUUGUUGGAG [hsa-miR-3065-3p] | 62.3
UGGCCGGAUGGGACAGGAGGCAU [hsa-miR-4743-5p] | -11.6
GUAGAUUCUCCUUCUAUGAGUA [hsa-miR-376a-5p] | 11.8
UGGAAGGGAGAAGAGCUUUAAU [hsa-miR-3202] | -35.3
AAAAACUGCAAUCACUUUUGC [hsa-miR-548az-3p] | 7.93
ACGCCCUUCCCCCCCUUCUUCA [hsa-miR-1249] | 29.3
UGCAAAAGUAAUUGCAGUUUUUG [hsa-miR-548g-5p] | 3.25
GUGGCUCUGUAGUAAGAUGGA [hsa-miR-8057] | 6.17

Hey, quick one: what's 5+ nucleoli phenotype percent effect for each of these?
1. UAGGUGGCAGAGGAGGGACUUCA [hsa-miR-6865-5p]
2. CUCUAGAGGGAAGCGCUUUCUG [hsa-miR-518e-5p]
3. AGCAGUGUUUGUUUUGCCCACA [hsa-miR-6499-3p]
4. ACCUGGCAUACAAUGUAGAUUU [hsa-miR-221-5p]
5. CUCUCCUCCCGGCUUC [hsa-miR-4279]
6. UGGGUUCCUGGCAUGCUGAUUU [hsa-miR-23b-5p]

1. -3.22
2. 3.26
3. -48
4. -26.8
5. -34.9
6. 1.4

Hey, quick one: what's 5+ nucleoli phenotype percent effect for each of these?
1. UGGAUUUCUUUGUGAAUCACCA [hsa-miR-876-5p]
2. AGGUGGAUGCAAUGUGACCUCA [hsa-miR-3165]
3. AGUGGGAGGACAGGAGGCAGGU [hsa-miR-6778-5p]
4. ACCUCCUGUGUGCAUGGAUUA [hsa-miR-660-3p]
5. UGUUGCAAGUCGGUGGAGACGU [hsa-miR-4684-3p]

1: 24.8; 2: -22.9; 3: -9.05; 4: -17.5; 5: -9.23

Hey, quick one: what's 5+ nucleoli phenotype percent effect for each of these?
1. CAUCUCUAAGGAACUCCCCCAA [hsa-miR-3675-3p]
2. UGGGGCGGAGCUUCCGGAG [hsa-miR-3180]
3. CAUAGCCCGGUCGCUGGUACAUGA [hsa-miR-3651]
4. UGGGGAGCUGAGGCUCUGGGGGUG [hsa-miR-939-5p]
5. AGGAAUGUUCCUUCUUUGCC [hsa-miR-613]

[8.48, -11.7, -7.1, 17, -37.9]

Hey, quick one: what's 5+ nucleoli phenotype percent effect for each of these?
1. AAAAUGAAAUGAGCCCAGCCCA [hsa-miR-3646]
2. CUGGCAGGGGGAGAGGUA [hsa-miR-7150]
3. UGGGCUGAGGGCAGGAGGCCUGU [hsa-miR-4656]

1: 21.9; 2: 0.85; 3: 20.8

###

Tested on: MCF10A
assay-procedure: one-nucleolus phenotype percent effect (relative to siNT 0% and siNOL11 100%); higher = more cells with one nucleolus (ribosome biogenesis inhibition)
test-context: 20 nM; 72 h
Tag: Met if measured one-nucleolus phenotype percent effect is not below -10%, Not met if it is.

Before answering, review these 5 worked examples.
UGCCCCACCUGCUGACCACCCUC [hsa-miR-4758-3p] | Not met
UCGACAGCACGACACUGCCUUC [hsa-miR-196b-3p] | Met
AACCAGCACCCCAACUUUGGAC [hsa-miR-634] | Not met
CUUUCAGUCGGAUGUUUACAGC [hsa-miR-30e-3p] | Not met
UUAACUCCUUUCACACCCAUGG [hsa-miR-4764-3p] | Not met

Hello, I need to know if AAAAGUAACUGCGGUUUUUGA [hsa-miR-548ak] has measured one-nucleolus phenotype percent effect not below -10%. Thanks!
Not met

Try this sequence too: UUUAGUGUGAUAAUGGCGUUUGA [hsa-miR-3591-5p]
Met

Try this sequence too: AAGAGGAAGAAAUGGCUGGUUCUCAG [hsa-miR-3916]
Met

Try this sequence too: ACUGGCAUUAGUGGGACUUUU [hsa-miR-5588-5p]
Met

Try this sequence too: AGGCCUGUGGCUCCUCCCUCAG [hsa-miR-6735-3p]
Met

Try this sequence too: UGCUGUAUUGUCAGGUAGUGA [hsa-miR-4999-5p]
Met

Try this sequence too: GUGAGUGGGAGCCCCAGUGUGUG [hsa-miR-1238-5p]
Not met

Try this sequence too: UAGGUGGCAGAGGAGGGACUUCA [hsa-miR-6865-5p]
Met

###

System: MCF10A
assay-procedure: 5+ nucleoli phenotype percent effect (relative to siNT 0% and siKIF11 100%); higher = more cells with five or more nucleoli
test-context: 20 nM; 72 h
Tag: class 1 if measured 5+ nucleoli phenotype percent effect is not below -10%, class 0 if it is.

Before answering, review these 5 worked examples.
CCGCUUUCUGAGCUGGAC [hsa-miR-4315] | class 0
GUGAGGCGGGGCCAGGAGGGUGUGU [hsa-miR-6765-5p] | class 1
ACUGGCCUGGGACUACCGG [hsa-miR-3176] | class 1
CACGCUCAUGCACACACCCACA [hsa-miR-574-3p] | class 1
UGAUUGGUACGUCUGUGGGUAG [hsa-miR-509-3p] | class 0

Hello, I need to know if UUCUGAGCUGAGGACAG [hsa-miR-4303] has measured 5+ nucleoli phenotype percent effect not below -10%. Thanks!
class 0

Try this sequence too: GAGGCUGAAGGAAGAUGG [hsa-miR-4419b]
class 0

Try this sequence too: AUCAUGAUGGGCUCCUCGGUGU [hsa-miR-433]
class 0

Try this sequence too: CGGGGCCAGAGCAGAGAGC [hsa-miR-6845-5p]
class 1

Try this sequence too: UCCCUCGCCUUCUCACCCUCAG [hsa-miR-6803-3p]
class 1

Try this sequence too: UAAUGAUUCAUCAGACUCAGAU [hsa-miR-580-5p]
class 0

Try this sequence too: UGGGCUGGCAGGGCAAGUGCUG [hsa-miR-4498]
class 1

Try this sequence too: CAAUCAGCAAGUAUACUGCCCU [hsa-miR-34a-3p]
class 0

Try this sequence too: GGGAUGGUAGACCGGUGACGUGC [hsa-miR-1193]
class 0

Try this sequence too: UGAGUGUUGUCUACGAGGGCA [hsa-miR-3659]
class 1

Try this sequence too: ACUCCAGUUUUAGUUCUCUUG [hsa-miR-3925-3p]
class 1

Try this sequence too: GGGAUAUGAAGAAAAAU [hsa-miR-3201]
class 1
